Please go through the items and note down their LOGP_NEUTRAL.
test: log P by HPLC on a reversed-phase column (C 18), EEC Directive 79/831 Annex V.A8; assay type: physicochemical; details: neutral range, pH 7.8, 0.001 molar aqueous ammonium hydrogencarbonate/acetonitrile; 55° C.

Some solved cases for reference:
| test_smiles | LOGP_NEUTRAL |
| --- | --- |
| CCCSc1ccc(OC)nc1-c1nc2cc(C(F)(F)F)ncc2n1C | 3.42 |
| CCS(=O)(=O)c1cc(C(F)(F)F)cnc1-c1nc2cc(C(F)(F)F)ncc2n1C | 2.93 |

Attention now turns to another entry.
Look up LOGP_NEUTRAL for this molecule: "CSc1cc(F)ccc1-c1nc2cc(C(F)(F)F)ncc2n1C"
2.65

Origin of the recorded values: patent US11274097B2
